B1: TPR 5TU (parent)
chain: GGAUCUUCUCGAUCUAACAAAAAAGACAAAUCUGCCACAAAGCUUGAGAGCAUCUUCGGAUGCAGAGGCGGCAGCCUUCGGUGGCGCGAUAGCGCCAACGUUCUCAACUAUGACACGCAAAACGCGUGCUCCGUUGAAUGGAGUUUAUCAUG

Variants of: B1
Assay: polymerase ribozyme fitness, log enrichment relative to wild type (log ratio); higher = more active; in vitro selection for triplet polymerase activity
Fewer inactive variants are shown than the library holds.
measured endpoint: polymerase ribozyme fitness (log ratio)
One number for each entry.

Consider the following illustrative entries.
mutation key: C18U A40G
measured endpoint: polymerase ribozyme fitness (log ratio)
data value: -2.32
//
mutation key: U82C A115G
measured endpoint: polymerase ribozyme fitness (log ratio)
data value: -0.965
//
mutation key: G84U
measured endpoint: polymerase ribozyme fitness (log ratio)
data value: -1.91
//
mutation key: A20U A150G
measured endpoint: polymerase ribozyme fitness (log ratio)
data value: -1.81

Looking for the measured polymerase ribozyme fitness (log ratio) of A16G A98U , can you help?
-1.65

Cited source for all entries: the RNAGym collection of RNA variant scans (doi:10.1073/pnas.2313332121)
